This collection of values is drawn from patent US20230381229A1.

# TARGET ENTITY: PD-1 expressed on cells (human)
# Sequence (chain, as listed by the source): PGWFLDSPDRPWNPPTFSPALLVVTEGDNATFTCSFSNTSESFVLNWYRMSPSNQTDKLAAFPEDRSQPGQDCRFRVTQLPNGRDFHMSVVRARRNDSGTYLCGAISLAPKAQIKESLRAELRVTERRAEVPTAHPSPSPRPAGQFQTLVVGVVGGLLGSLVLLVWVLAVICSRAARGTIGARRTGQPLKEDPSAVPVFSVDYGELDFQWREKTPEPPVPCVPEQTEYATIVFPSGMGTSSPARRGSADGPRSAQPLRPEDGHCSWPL
# METHOD SUMMARY: flow cytometry, Jurkat/PD-1 cells
Checkbox rule: Fold increase over wildtype PD-L2 IgV-Fc lower than 0.5 = criterion met; Fold increase over wildtype PD-L2 IgV-Fc not lower than 0.5 = criterion not met.

Reference set (4 entries):
BINDER | GROUP
variant PD-L2 IgV-Fc V89D (Fc fusion) LFTVTVPKELYIIEHGSNVTLECNFDTGSHVNLGAITASLQKVENDTSPHRERATLLEEQLPLGKASFHIPQVQVRDEGQYQCIIIYGDAWDYKYLTLKVKA | criterion met
variant PD-L2 IgV-Fc N24D (Fc fusion) LFTVTVPKELYIIEHGSNVTLECDFDTGSHVNLGAITASLQKVENDTSPHRERATLLEEQLPLGKASFHIPQVQVRDEGQYQCIIIYGVAWDYKYLTLKVKA | criterion met
variant PD-L2 IgV-Fc I13V, H15Q, R76G, I85F (Fc fusion) LFTVTVPKELYIVEQGSNVTLECNFDTGSHVNLGAITASLQKVENDTSPHRERATLLEEQLPLGKASFHIPQVQVGDEGQYQCIFIYGVAWDYKYLTLKVKA | criterion met
variant PD-L2 IgV-Fc G28V, Q72H, R76G, I86T (Fc fusion) LFTVTVPKELYIIEHGSNVTLECNFDTVSHVNLGAITASLQKVENDTSPHRERATLLEEQLPLGKASFHIPHVQVGDEGQYQCIITYGVAWDYKYLTLKVKA | criterion not met

Problem: Hello, is Fold increase over wildtype PD-L2 IgV-Fc of the following binder strictly smaller than 0.5? variant PD-L2 IgV-Fc I13V, E44D, Q82R, V89D (Fc fusion) LFTVTVPKELYIVEHGSNVTLECNFDTGSHVNLGAITASLQKVDNDTSPHRERATLLEEQLPLGKASFHIPQVQVRDEGQYRCIIIYGDAWDYKYLTLKVKA
Solution: criterion not met

Problem: Hello, is Fold increase over wildtype PD-L2 IgV-Fc of the following binder strictly smaller than 0.5? variant PD-L2 IgV-Fc H15Q, T47A (Fc fusion) LFTVTVPKELYIIEQGSNVTLECNFDTGSHVNLGAITASLQKVENDASPHRERATLLEEQLPLGKASFHIPQVQVRDEGQYQCIIIYGVAWDYKYLTLKVKA
Solution: criterion not met
